biological target: Focal adhesion kinase 1 (Homo sapiens) (UniProt Q05397); test: PTK2 protein binding on printed compound slides – biochemical, small-molecule microarray, 635/667 nm fluorescence, BSA, DTT, primary screen (AID 1130); conditions: 635 nm fluorescence, higher = more signal;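 further: composite of spot emission at 667 nm and signal to noise over triplicate slides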
Sequence (Q05397 whole entry, looked up): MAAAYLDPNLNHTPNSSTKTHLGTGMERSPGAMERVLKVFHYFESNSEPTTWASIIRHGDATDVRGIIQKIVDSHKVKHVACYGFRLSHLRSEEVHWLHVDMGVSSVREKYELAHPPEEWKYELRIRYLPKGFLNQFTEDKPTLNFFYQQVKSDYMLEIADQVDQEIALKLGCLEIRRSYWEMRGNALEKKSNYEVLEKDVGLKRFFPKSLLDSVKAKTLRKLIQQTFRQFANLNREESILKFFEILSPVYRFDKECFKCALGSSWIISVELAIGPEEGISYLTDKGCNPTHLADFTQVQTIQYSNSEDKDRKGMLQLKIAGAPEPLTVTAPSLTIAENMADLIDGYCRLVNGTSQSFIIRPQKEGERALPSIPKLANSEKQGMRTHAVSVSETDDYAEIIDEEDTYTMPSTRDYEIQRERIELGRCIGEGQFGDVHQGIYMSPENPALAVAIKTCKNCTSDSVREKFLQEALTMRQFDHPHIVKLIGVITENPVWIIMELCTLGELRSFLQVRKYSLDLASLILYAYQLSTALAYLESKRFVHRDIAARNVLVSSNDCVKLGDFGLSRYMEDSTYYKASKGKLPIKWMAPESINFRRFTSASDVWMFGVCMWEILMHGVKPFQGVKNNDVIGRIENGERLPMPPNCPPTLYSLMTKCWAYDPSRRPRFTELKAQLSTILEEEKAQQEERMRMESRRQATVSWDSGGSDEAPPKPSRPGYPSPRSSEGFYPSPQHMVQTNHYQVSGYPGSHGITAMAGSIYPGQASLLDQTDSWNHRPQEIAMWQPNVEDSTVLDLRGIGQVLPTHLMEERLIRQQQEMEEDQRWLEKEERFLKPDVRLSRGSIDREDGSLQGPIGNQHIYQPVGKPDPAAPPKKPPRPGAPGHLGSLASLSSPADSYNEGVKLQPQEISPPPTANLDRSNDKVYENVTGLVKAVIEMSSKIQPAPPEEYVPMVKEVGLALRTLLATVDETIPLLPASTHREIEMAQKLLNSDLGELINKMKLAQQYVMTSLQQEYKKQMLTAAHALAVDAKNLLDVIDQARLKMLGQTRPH
measurementLabel: composite z-score
Just the number, please, no unit after it.

Identify the reported composite z-score for the following entry. C[C@@H]1ON(c2ccccc2)[C@H](c2ccccc2)[C@H]1C(=O)N1C(=O)OC[C@H]1Cc1ccccc1
0.507

***
Identify the reported composite z-score for the following entry. COCCCNC(=O)[C@@]1(Cc2ccccc2I)c2ccccc2C(=O)N(Cc2ccccc2Cl)[C@H]1c1ccc(CO)cc1
0.692

Identify the reported composite z-score for the following entry. C=CCC(OC(C)=O)[C@@H]1[C@@H](N(Cc2cccc3ccccc23)C(=O)Cc2ccc(F)cc2)c2cc(OCCCO)ccc2N1C(=O)Cc1ccc(OC)cc1 (some centres undefined)
-0.142

Identify the reported composite z-score for the following entry. COc1ccc([Si](C)(C)[C@H]2[C@H](CC(=O)N3CCC[C@H]3CO)O[C@@]3(C(=O)N(Cc4ccc(N5C(=O)c6cccc7cccc5c67)cc4)c4ccccc43)[C@@H]2C)cc1
1.18

Identify the reported composite z-score for the following entry. COCCOC(=O)N1C(=O)[C@@]2(c3cc(C#Cc4ccc(OC)cc4)ccc31)[C@H](c1ccc(OCCO)cc1)N1[C@H](c3ccccc3)[C@H](c3ccccc3)OC(=O)[C@H]1[C@@H]2C(N)=O
1.03
